Tested on: MDCKII-MDR1-BCRP cell monolayers
METHOD NOTES: MDCKII-MDR1-BCRP efflux assay
Type: in vitro ADME
CONDITION INFO: 5 μM compound, 120 min, HBSS pH 7.4
compounds and their reported MDCK-Mdr1-BCRP efflux ratio
// return just the number, without any unit appended

Report MDCK-Mdr1-BCRP efflux ratio on MDCKII-MDR1-BCRP cell monolayers for this entry: Cc1cc2ncnn2cc1Nc1ncc2c(C)nn(CC3CCOC3)c2n1 (single isomer, unassigned)
2.4

Report MDCK-Mdr1-BCRP efflux ratio on MDCKII-MDR1-BCRP cell monolayers for this entry: COC1CCC(n2nc(C)c3cnc(Nc4cn5ncnc5cc4C)nc32)C1 (single isomer, unassigned) [Example 109]
2

Report MDCK-Mdr1-BCRP efflux ratio on MDCKII-MDR1-BCRP cell monolayers for this entry: Cc1cc2ncnn2cc1Nc1ncc2c(C)nn(C3CCOC(C)C3)c2n1 (single isomer, unassigned)
2.1

Report MDCK-Mdr1-BCRP efflux ratio on MDCKII-MDR1-BCRP cell monolayers for this entry: Cc1cc2ncnn2cc1Nc1ncc2c(C)nn(CC3CCCO3)c2n1 (single isomer, unassigned)
1.9

Report MDCK-Mdr1-BCRP efflux ratio on MDCKII-MDR1-BCRP cell monolayers for this entry: Cc1cc2ncnn2cc1Nc1ncc2c(C)nn(C3CCOCC3C)c2n1 (single isomer, unassigned) [Example 114]
2

Report MDCK-Mdr1-BCRP efflux ratio on MDCKII-MDR1-BCRP cell monolayers for this entry: Cc1cc2ncnn2cc1Nc1ncc2c(C)nn(C3CCOC3)c2n1 (single isomer, unassigned)
3.4

Report MDCK-Mdr1-BCRP efflux ratio on MDCKII-MDR1-BCRP cell monolayers for this entry: COC1CCC(n2nc(C)c3cnc(Nc4cn5ncnc5cc4C)nc32)C1 (single isomer, unassigned) [Example 110]
1.7

Report MDCK-Mdr1-BCRP efflux ratio on MDCKII-MDR1-BCRP cell monolayers for this entry: Cc1cc2ncnn2cc1Nc1ncc2c(C)nn(C3CC(C)OC(C)C3)c2n1 (single isomer, unassigned)
0.9

Report MDCK-Mdr1-BCRP efflux ratio on MDCKII-MDR1-BCRP cell monolayers for this entry: Cc1cc2ncnn2cc1Nc1ncc2c(C)nn(C3CCOCC3C)c2n1 (single isomer, unassigned) [Example 115]
2

Report MDCK-Mdr1-BCRP efflux ratio on MDCKII-MDR1-BCRP cell monolayers for this entry: Cc1cc2ncnn2cc1Nc1ncc2c(C)nn(C3CCCOC3)c2n1 (single isomer, unassigned)
1.2

Report MDCK-Mdr1-BCRP efflux ratio on MDCKII-MDR1-BCRP cell monolayers for this entry: COC1CCC(n2nc(C)c3cnc(Nc4cn5ncnc5cc4C)nc32)C1 (single isomer, unassigned) [Example 111]
1.8

Report MDCK-Mdr1-BCRP efflux ratio on MDCKII-MDR1-BCRP cell monolayers for this entry: Cc1cc2ncnn2cc1Nc1ncc2c(C)nn(C3CCOC(C)(C)C3)c2n1 (single isomer, unassigned)
1.8

Report MDCK-Mdr1-BCRP efflux ratio on MDCKII-MDR1-BCRP cell monolayers for this entry: Cc1cc2ncnn2cc1Nc1ncc2c(C)nn(C3CCOCC3C)c2n1 (single isomer, unassigned) [Example 113]
4

Report MDCK-Mdr1-BCRP efflux ratio on MDCKII-MDR1-BCRP cell monolayers for this entry: Cc1cc2ncnn2cc1Nc1ncc2c(C)nn(C3CCCOCC3)c2n1 (single isomer, unassigned)
3.5
